Hello, the source for this data is paper PMC9572513, in case you need it.

Documented IC50 across a set of molecules
- Test system: HT29 colon cancer cells
- method description: Cytotoxicity against HT29 colon cancer cells
- Format: cell-based, human
- conditions used: Homo sapiens, HT-29, 48 h, 48 h

[
  {
    "molecule": "COc1ccc(C=C2CNCC(=Cc3ccc(O)c(CN(C)C)c3)C2=O)cc1OC.Cl.Cl",
    "readout qualifier": "=",
    "IC50 [nM]": 1800
  },
  {
    "molecule": "Cc1ccc(/C=C2\\CNC/C(=C\\c3ccc(O)c(CN4CCN(C)CC4)c3)C2=O)cc1",
    "readout qualifier": "=",
    "IC50 [nM]": 710
  },
  {
    "molecule": "O=c1[nH]cc(F)c(=O)[nH]1 [Compound 5-FU, 5-fluorouracil, reference compound]",
    "readout qualifier": "=",
    "IC50 [nM]": 14400
  },
  {
    "molecule": "COc1ccc(/C=C2\\CNC/C(=C\\c3ccc(O)c(CN4CCCCC4)c3)C2=O)cc1OC",
    "readout qualifier": "<",
    "IC50 [nM]": 1000
  }
]

---

- Test system: HSC-3 squamous cell carcinoma cells
- method description: MTT cytotoxicity against HSC-3 squamous cell carcinoma
- Type: cell-based, human
- conditions used: 48 h, MTT; read-out: HSC-3 CC50
metric name: CC50 (µM)

[
  {
    "compound": "[NH2][Pt]([NH2])([Cl])[Cl] [CDDP, cisplatin, reference compound]",
    "metric name": "CC50",
    "endpoint value": 46.9
  }
]

---

Documented CC50 across a set of compounds
- Tested on: HSC-4 squamous cell carcinoma cells
- method description: MTT cytotoxicity against HSC-4 squamous cell carcinoma
- Type: cell-based, human
- conditions used: Homo sapiens, HSC-4; 48 h, MTT; read-out: HSC-4 CC50

[
  {
    "compound": "CN1CCN(Cc2cc(/C=C3\\CNC/C(=C\\c4ccccc4)C3=O)ccc2O)CC1 [Compound 3a]",
    "study target": "HSC-4 squamous cell carcinoma cells",
    "CC50 (nM)": 710
  },
  {
    "compound": "COc1cccc2c1C(=O)c1c(O)c3c(c(O)c1C2=O)C[C@@](O)(C(=O)CO)C[C@@H]3O[C@H]1C[C@H](N)[C@H](O)[C@H](C)O1 [DXR, doxorubicin, reference compound]",
    "study target": "HSC-4 squamous cell carcinoma cells",
    "CC50 (nM)": 140
  },
  {
    "compound": "COc1ccc(/C=C2\\CNC/C(=C\\c3ccc(O)c(CN4CCCC4)c3)C2=O)cc1OC [Compound 2c]",
    "study target": "HSC-4 squamous cell carcinoma cells",
    "CC50 (nM)": 14100
  },
  {
    "compound": "COc1ccc(/C=C2\\CNC/C(=C\\c3ccc(O)c(CN4CCCCC4)c3)C2=O)cc1OC [Compound 2d]",
    "study target": "HSC-4 squamous cell carcinoma cells",
    "CC50 (nM)": 750
  },
  {
    "compound": "CN1CCN(Cc2cc(/C=C3\\CNC/C(=C\\c4ccc([N+](=O)[O-])cc4)C3=O)ccc2O)CC1 [Compound 3e]",
    "study target": "HSC-4 squamous cell carcinoma cells",
    "CC50 (nM)": 600
  },
  {
    "compound": "COc1ccc(/C=C2\\CNC/C(=C\\c3ccc(O)c(CN4CCN(C)CC4)c3)C2=O)cc1OC [Compound 2f]",
    "study target": "HSC-4 squamous cell carcinoma cells",
    "CC50 (nM)": 2730
  },
  {
    "compound": "Cc1ccc(/C=C2\\CNC/C(=C\\c3ccc(O)c(CN4CCN(C)CC4)c3)C2=O)cc1 [Compound 3d]",
    "study target": "HSC-4 squamous cell carcinoma cells",
    "CC50 (nM)": 2290
  },
  {
    "compound": "CN1CCN(Cc2cc(/C=C3\\CNC/C(=C\\c4ccc(F)cc4)C3=O)ccc2O)CC1 [Compound 3b]",
    "study target": "HSC-4 squamous cell carcinoma cells",
    "CC50 (nM)": 1140
  },
  {
    "compound": "COc1ccc(C=C2CNCC(=Cc3ccc(O)c(CN(C)C)c3)C2=O)cc1OC.Cl.Cl [Compound 2a]",
    "study target": "HSC-4 squamous cell carcinoma cells",
    "CC50 (nM)": 1390
  },
  {
    "compound": "CCN(CC)Cc1cc(C=C2CNCC(=Cc3ccc(OC)c(OC)c3)C2=O)ccc1O.Cl.Cl [Compound 2b]",
    "study target": "HSC-4 squamous cell carcinoma cells",
    "CC50 (nM)": 1160
  },
  {
    "compound": "COc1ccc(/C=C2\\CNC/C(=C\\c3ccc(O)c(CN4CCN(C)CC4)c3)C2=O)cc1 [Compound 3c]",
    "study target": "HSC-4 squamous cell carcinoma cells",
    "CC50 (nM)": 1180
  },
  {
    "compound": "O=c1[nH]cc(F)c(=O)[nH]1 [Compound 5-FU, 5-fluorouracil, reference compound]",
    "study target": "HSC-4 squamous cell carcinoma cells",
    "CC50 (nM)": 7800
  }
]

---

- method description: Average over HGF, HPLF and HPC non-malignant oral cells
- Assay type: cell-based, human
- conditions used: human, HPLF and HPC non-malignant oral cells (average), average of HGF
metric name: CC50 at 48 h

[
  {
    "molecule": "O=c1[nH]cc(F)c(=O)[nH]1 [Compound 5-FU, 5-fluorouracil, reference compound]",
    "metric name": "CC50 at 48 h",
    "endpoint value": "> 1000 µM"
  },
  {
    "molecule": "N[C@@H](Cc1ccc(N(CCCl)CCCl)cc1)C(=O)O [MPN, melphalan, reference compound]",
    "metric name": "CC50 at 48 h",
    "endpoint value": "> 200 µM"
  },
  {
    "molecule": "COc1ccc(/C=C2\\CNC/C(=C\\c3ccc(O)c(CN4CCOCC4)c3)C2=O)cc1OC",
    "metric name": "CC50 at 48 h",
    "endpoint value": "> 200 µM"
  },
  {
    "molecule": "COc1ccc(/C=C2\\CNC/C(=C\\c3ccc(O)c(CN4CCCCC4)c3)C2=O)cc1OC",
    "metric name": "CC50 at 48 h",
    "endpoint value": "< 3.77 µM"
  },
  {
    "molecule": "COc1cccc2c1C(=O)c1c(O)c3c(c(O)c1C2=O)C[C@@](O)(C(=O)CO)C[C@@H]3O[C@H]1C[C@H](N)[C@H](O)[C@H](C)O1 [DXR, doxorubicin, reference compound]",
    "metric name": "CC50 at 48 h",
    "endpoint value": "> 10 µM"
  }
]

---

Documented CC50 at 48 h across a set of compounds
- method description: MTT cytotoxicity against human gingival fibroblast (HGF)
- Format: cell-based
- conditions used: human, human gingival fibroblasts (HGF), non-malignant oral cells
metric name: CC50 at 48 h

[
  {
    "compound": "COc1cccc2c1C(=O)c1c(O)c3c(c(O)c1C2=O)C[C@@](O)(C(=O)CO)C[C@@H]3O[C@H]1C[C@H](N)[C@H](O)[C@H](C)O1 [DXR, doxorubicin, reference compound]",
    "endpoint value": "> 10 µM"
  },
  {
    "compound": "O=c1[nH]cc(F)c(=O)[nH]1 [Compound 5-FU, 5-fluorouracil, reference compound]",
    "endpoint value": "> 1000 µM"
  },
  {
    "compound": "COc1ccc(/C=C2\\CNC/C(=C\\c3ccc(O)c(CN4CCOCC4)c3)C2=O)cc1OC",
    "endpoint value": "> 200 µM"
  },
  {
    "compound": "CN1CCN(Cc2cc(/C=C3\\CNC/C(=C\\c4ccc(F)cc4)C3=O)ccc2O)CC1",
    "endpoint value": "18.5 µM"
  },
  {
    "compound": "CN1CCN(Cc2cc(/C=C3\\CNC/C(=C\\c4ccc([N+](=O)[O-])cc4)C3=O)ccc2O)CC1",
    "endpoint value": "12.5 µM"
  },
  {
    "compound": "COc1ccc(/C=C2\\CNC/C(=C\\c3ccc(O)c(CN4CCCCC4)c3)C2=O)cc1OC",
    "endpoint value": "7 µM"
  },
  {
    "compound": "N[C@@H](Cc1ccc(N(CCCl)CCCl)cc1)C(=O)O [MPN, melphalan, reference compound]",
    "endpoint value": "> 200 µM"
  },
  {
    "compound": "COc1ccc(/C=C2\\CNC/C(=C\\c3ccc(O)c(CN4CCN(C)CC4)c3)C2=O)cc1OC",
    "endpoint value": "33.1 µM"
  },
  {
    "compound": "COc1ccc(C=C2CNCC(=Cc3ccc(O)c(CN(C)C)c3)C2=O)cc1OC.Cl.Cl",
    "endpoint value": "15.9 µM"
  }
]
